These measurements were taken from patent US9770445B2.

Kindly supply the reported pIC50 values for the records listed here.
Biological target: CDK9/CycT1 (Homo sapiens)
Construct: Recombinant full-length His-tagged human CDK9 and CycT1; His; purchased Invitrogen PV4131; host or cells: insect cells
Sequence (P50750 whole entry): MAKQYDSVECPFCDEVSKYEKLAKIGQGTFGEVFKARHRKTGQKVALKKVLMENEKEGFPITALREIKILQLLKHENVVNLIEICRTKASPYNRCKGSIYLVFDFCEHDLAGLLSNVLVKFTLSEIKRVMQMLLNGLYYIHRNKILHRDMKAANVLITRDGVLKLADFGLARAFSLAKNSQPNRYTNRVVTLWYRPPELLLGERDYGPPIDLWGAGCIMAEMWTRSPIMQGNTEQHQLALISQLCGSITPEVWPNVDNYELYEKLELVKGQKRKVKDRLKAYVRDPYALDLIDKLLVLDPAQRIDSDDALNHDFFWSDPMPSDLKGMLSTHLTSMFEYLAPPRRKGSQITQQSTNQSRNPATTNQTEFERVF
Sequence (O60563 whole entry partner): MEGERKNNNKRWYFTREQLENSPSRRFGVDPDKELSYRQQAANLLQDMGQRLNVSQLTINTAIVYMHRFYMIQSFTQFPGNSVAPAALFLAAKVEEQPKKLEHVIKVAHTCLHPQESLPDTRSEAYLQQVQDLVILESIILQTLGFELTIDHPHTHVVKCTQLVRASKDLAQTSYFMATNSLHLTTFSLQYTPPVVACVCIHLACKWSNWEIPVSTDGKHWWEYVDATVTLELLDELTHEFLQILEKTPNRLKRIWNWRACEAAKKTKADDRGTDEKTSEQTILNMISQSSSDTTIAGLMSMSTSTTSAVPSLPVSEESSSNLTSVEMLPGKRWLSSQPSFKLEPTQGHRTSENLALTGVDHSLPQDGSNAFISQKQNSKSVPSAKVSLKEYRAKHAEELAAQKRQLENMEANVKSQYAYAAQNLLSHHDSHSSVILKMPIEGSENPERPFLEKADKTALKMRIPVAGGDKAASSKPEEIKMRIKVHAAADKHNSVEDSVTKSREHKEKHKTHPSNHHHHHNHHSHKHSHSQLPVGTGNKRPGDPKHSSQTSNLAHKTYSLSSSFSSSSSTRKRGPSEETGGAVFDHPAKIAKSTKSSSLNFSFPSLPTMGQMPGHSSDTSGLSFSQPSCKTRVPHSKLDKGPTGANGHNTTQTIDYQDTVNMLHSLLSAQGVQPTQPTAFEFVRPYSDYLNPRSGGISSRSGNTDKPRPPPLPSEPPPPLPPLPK
Experiment: CDK9/CycT1 high ATP kinase assay (Method 1b, TR-FRET)
Assay type: biochemical
Settings: 2 mM ATP
The read-out pIC50 is expressed as -log10 of concentration in moles per litre.

### Prompt Provide one value: measured pIC50 of CS(=O)(Cc1ccnc(Nc2cc(-c3ccc(F)c4ccoc34)c(F)cn2)c1)=NC(=O)NCC(F)(F)F (racemic)
### Response 8.64

### Prompt Return the recorded pIC50 value; entry: CS(=O)(Cc1ccnc(Nc2cc(-c3ccc(F)c4ccoc34)c(F)cn2)c1)=NC#N (racemic)
### Response 8.80

### Prompt Consider the compound CCc1cc(CS(C)(=N)=O)cc(Nc2cc(-c3ccc(F)c4ccoc34)c(F)cn2)n1 (racemic) . State its measured pIC50.
### Response 8.89

### Prompt Look up pIC50 of CS(=O)(Cc1cc(Nc2cc(-c3ccc(F)c4ccoc34)c(F)cn2)nc(C(F)(F)F)c1)=NC(=O)C(F)(F)F (racemic) and report it.
### Response 8.15

### Prompt Identify pIC50 associated with the compound Cc1cc(CS(C)(=N)=O)cc(Nc2cc(-c3ccc(F)c4ccoc34)c(F)cn2)n1 (racemic)
### Response 8.89

### Prompt Give pIC50 for the following compound: CS(=N)(=O)Cc1cc(F)nc(Nc2cc(-c3ccc(F)c4ccoc34)c(F)cn2)c1 (racemic)
### Response 8.82

### Prompt Supply measured pIC50 of CS(=O)(Cc1cc(F)nc(Nc2cc(-c3ccc(F)c4ccoc34)c(F)cn2)c1)=NC(=O)C(F)(F)F (racemic) in your reply.
### Response 8.11

### Prompt Please list pIC50 recorded for the compound CS(=N)(=O)Cc1ccnc(Nc2cc(-c3ccc(F)c4ccoc34)c(F)cn2)c1 (racemic)
### Response 8.70

### Prompt Fill in reported pIC50 for this entry: CS(=N)(=O)Cc1cc(Nc2cc(-c3ccc(F)c4ccoc34)c(F)cn2)nc(C(F)(F)F)c1 (racemic)
### Response 8.57

### Prompt Tell me pIC50 reported for CC(=O)N=S(C)(=O)Cc1ccnc(Nc2cc(-c3ccc(F)c4ccoc34)c(F)cn2)c1 (racemic)
### Response 8.64

### Prompt Supply measured pIC50 of CS(=O)(Cc1ccnc(Nc2cc(-c3ccc(F)c4ccoc34)c(F)cn2)c1)=NC(=O)C(F)(F)F (racemic) in your reply.
### Response 8.19

### Prompt Name the recorded pIC50 of the compound listed here: CCOC(=O)N=S(C)(=O)Cc1ccnc(Nc2cc(-c3ccc(F)c4ccoc34)c(F)cn2)c1 (racemic)
### Response 8.70

### Prompt Give pIC50 for CCNC(=O)N=S(C)(=O)Cc1ccnc(Nc2cc(-c3ccc(F)c4ccoc34)c(F)cn2)c1 (racemic)
### Response 8.72
